- Test system: sensitive green rice leafhopper (collected at Chigasaki)
- EXPERIMENT DESCRIPTION: whole plant or invertebrate
- Assay type: in vivo
- CONDITIONS USED: Nephotettix cincticeps; 20 ppm; sensitive female adults; 24 hours; read-out: Mortality (%), Green Rice Leafhopper Collected at Chigasaki
What mortality at 20 ppm was measured for each of the following?
Reply numerically in %, unit not repeated.

Provide one value: measured mortality at 20 ppm of CC(C)(COCc1cccc(Oc2ccc(F)cc2)c1)c1ccc(Cl)cc1
100

Provide one value: measured mortality at 20 ppm of CC(C)(COCc1cccc(Oc2ccc(F)cc2)c1)c1ccc(OC(F)F)cc1
100

Provide one value: measured mortality at 20 ppm of CCC(C)(COCc1cccc(Oc2ccccc2)c1)c1ccc(Cl)cc1 (stereo not drawn)
80

Provide one value: measured mortality at 20 ppm of CCOc1ccc(Oc2cccc(COCC(C)(C)c3ccc(OCC)cc3)c2)cc1
100

Provide one value: measured mortality at 20 ppm of CCOCc1ccc(C(C)(C)COCc2cccc(Oc3ccccc3)c2)cc1
80

Provide one value: measured mortality at 20 ppm of CC(C)(COCc1cccc(Oc2cccc(Cl)c2)c1)c1ccc(Cl)cc1
100

Provide one value: measured mortality at 20 ppm of CC(C)(COCc1cccc(Oc2ccccc2)c1)c1ccc(-c2ccccc2)cc1
100

Provide one value: measured mortality at 20 ppm of Cc1cccc(Oc2cccc(COCC(C)(C)c3ccc(Cl)cc3)c2)c1
60

Provide one value: measured mortality at 20 ppm of CC(=O)c1ccc(C(C)(C)COCc2cccc(Oc3ccccc3)c2)cc1
60

----------
- System: sensitive green rice leafhopper (collected at Chigasaki)
- EXPERIMENT DESCRIPTION: whole plant or invertebrate
- Assay type: in vivo
- CONDITIONS USED: Nephotettix cincticeps; 20 ppm; sensitive female adults; 24 hours; read-out: Mortality (%), Green Rice Leafhopper Collected at Chigasaki
QUANTITY MEASURED: mortality at 20 ppm (%)
Reply numerically in %, unit not repeated.

Provide one value: measured mortality at 20 ppm of CC(C)(COCc1cccc(Oc2ccccc2)c1)c1ccc2c(c1)OCO2 [Compound 7]
90

Provide one value: measured mortality at 20 ppm of CC(C)(COCc1cccc(Oc2ccccc2)c1)c1ccc2ccccc2c1 [Compound 31]
100

Provide one value: measured mortality at 20 ppm of COc1ccc(Oc2cccc(COCC(C)(C)c3ccc(Cl)cc3)c2)cc1 [Compound 34]
90

Provide one value: measured mortality at 20 ppm of CC(C)(COCc1cccc(C(=O)c2ccccc2)c1)c1ccc(Cl)cc1 [Compound 22]
50

Provide one value: measured mortality at 20 ppm of CC(C)c1ccc(C(C)(C)COCc2cccc(Oc3ccc(F)cc3)c2)cc1 [Compound 77]
70

Provide one value: measured mortality at 20 ppm of CCOc1ccc(C(C)(C)COCc2cccc(Oc3ccc(Br)cc3)c2)cc1 [Compound 66]
100

Provide one value: measured mortality at 20 ppm of CC(C)(COCc1cccc(Oc2ccccc2)c1)c1ccc(OC2CCCCC2)cc1 [Compound 72]
65

Provide one value: measured mortality at 20 ppm of CCSc1ccc(C(C)(C)COCc2cccc(Oc3ccccc3)c2)cc1 [Compound 100]
80

----------
What mortality at 20 ppm was measured for each of the following?
- Tested on: tobacco cutworm
- EXPERIMENT DESCRIPTION: Test 1: Effect on Tobacco Cutworm (leaf immersion), mortality after 24 hours
- Format: in vivo
- CONDITIONS USED: 20 ppm, second-instar larvae, 25° C
Reply numerically in %, unit not repeated.

Provide one value: measured mortality at 20 ppm of C#CCOc1ccc(C(C)(C)COCc2cccc(Oc3ccccc3)c2)cc1
100

Provide one value: measured mortality at 20 ppm of CCCOc1ccc(C(C)(C)COCc2cccc(Oc3ccccc3)c2)cc1
100

Provide one value: measured mortality at 20 ppm of CC(C)(COCc1cccc(Oc2ccc(F)cc2)c1)c1ccc(OC(F)F)cc1
100

Provide one value: measured mortality at 20 ppm of Cc1ccc(C(C)(C)COCc2cccc(Oc3ccccc3)c2)cc1
90

Provide one value: measured mortality at 20 ppm of CCOCOc1ccc(C(C)(C)COCc2cccc(Oc3ccccc3)c2)cc1
90

Provide one value: measured mortality at 20 ppm of CCC(C)(COCc1cccc(Oc2ccc(F)cc2)c1)c1ccc(F)cc1 (stereo not shown)
90

Provide one value: measured mortality at 20 ppm of Cc1ccc(C(C)(C)COCc2cccc(Oc3ccc(Br)cc3)c2)cc1
90

Provide one value: measured mortality at 20 ppm of CC(C)(COCc1cccc(Oc2ccccc2)c1)c1cccc(C(F)(F)F)c1
90

Provide one value: measured mortality at 20 ppm of CCOC(=O)c1ccc(C(C)(C)COCc2cccc(Oc3ccccc3)c2)cc1
80

Provide one value: measured mortality at 20 ppm of CCC(C)(COCc1cccc(Oc2ccc(Br)cc2)c1)c1ccc(Cl)cc1 (stereo not shown)
100

Provide one value: measured mortality at 20 ppm of CC(C)(CSCc1cccc(Oc2ccccc2)c1)c1ccc(Cl)cc1
100

Provide one value: measured mortality at 20 ppm of CC(C)(COCc1cccc(Oc2ccccc2)c1)c1ccc([N+](=O)[O-])cc1
85

Provide one value: measured mortality at 20 ppm of COCOc1ccc(C(C)(C)COCc2cccc(Oc3ccccc3)c2)cc1
100

Source of measurements: patent US4570005A
